Cited source for all entries: ChEMBL document CHEMBL4414648

- method: Inhibition of C57BL/6 mouse effector T cells proliferation at 500 nM after 72 hrs in absence of regulatory T cells by CFSE dye based flow cytometric assay relative to control
reported endpoint: inhibition at 72 h, 0.5 µM

* Cn1c(Sc2ccc(C(=O)NO)cc2)nnc1-c1cccs1 | < 0.5%

###

- method: Oral bioavailability in rat
- Format: ADME, organism-based
- reported conditions: in vivo
reported endpoint: bioavailability (%)

* O=C(NO)c1ccc(Cn2nnnc2-c2cccs2)cc1 | 25

###

pIC50: −log10 of the molar value.
Measurement record for Protein deacetylase HDAC6 (Homo sapiens, UniProt Q9UBN7); quantity recorded: pIC50.
reported endpoint: pIC50

- O=C(NO)c1ccc(Cc2noc(-c3ccccc3)n2)cc1: 8.22
- O=C(NO)c1ccc(Nc2nnc(-c3ccccc3)s2)cc1: 7.18
- O=C(NO)c1ccc(Sc2nnc(-c3ccccc3)o2)cc1: 8.22
- Cn1c(Sc2c(F)cc(C(=O)NO)cc2F)nnc1-c1cccnn1: 7.89
- CC(=O)Nc1ccc(C(=O)NO)cc1: 6.57
- O=C(NO)c1ccccc1 [BENZOHYDROXAMATE]: 5.63

###

Each item that follows carries a reported Ratio IC50.
- method: Selectivity ratio of IC50 for N-terminal GST-tagged human HDAC7 (518 to end residues) expressed in baculovirus infected sf9 insect cells to IC50 for human N-terminal GST-tagged HDAC6 expressed in baculovirus infected sf9 insect cells
reported endpoint: Ratio IC50

- O=C(NO)c1cc(F)c(Cn2nnc(-c3ccco3)n2)c(F)c1: 330
- Nc1ccc(-c2nnn(Cc3c(F)cc(C(=O)NO)cc3F)n2)cc1: 325
- O=C(NO)c1cc(F)c(Cn2nnc(-c3ccccn3)n2)c(F)c1: 119
- Cc1cc(-c2nnc(Sc3c(F)cc(C(=O)NO)cc3F)n2C)nn1C: 48
- Cn1c(Sc2c(F)cc(C(=O)NO)cc2F)nnc1-c1cccs1: 61
- O=C(NO)c1cc(F)c(Cc2nnc(-c3ccncc3)s2)c(F)c1: 77
- Cn1c(Sc2c(F)cc(C(=O)NO)cc2F)nnc1-c1ccc(CN2CCCCC2)cc1: 83
- Cn1c(Sc2c(F)cc(C(=O)NO)cc2F)nnc1-c1cccnn1: 15
- Cn1c(Sc2c(F)cc(C(=O)NO)cc2F)nnc1-c1cccc(CN2CCCCCC2)c1: 79
- Cn1c(Sc2ccc(C(=O)NO)cc2)nnc1-c1cccs1: 99
- O=C(NO)c1ccc(Cn2nnc(-c3ncccn3)n2)cc1: 146
- Cn1c(Sc2c(F)cc(C(=O)NO)cc2F)nnc1-c1ncccc1F: 38

###

- method: Toxicity in ip dosed C57BL/6 mouse administered for 5 days/week for two cycles
- Format: organism-based
- reported conditions: in vivo
reported endpoint: MTD at 120 h

- O=C(NO)c1ccc(Cn2nnnc2-c2cccs2)cc1: > 50 mg/kg
- Cn1c(Sc2ccc(C(=O)NO)cc2)nnc1-c1cccs1: < 30 mg/kg

###

- method: Inhibition of C57BL/6 mouse effector T cells proliferation at 1 uM after 72 hrs in absence of regulatory T cells by CFSE dye based flow cytometric assay relative to control
reported endpoint: inhibition at 72 h, 1 µM

- Cn1c(Sc2ccc(C(=O)NO)cc2)nnc1-c1cccs1: < 5%

###

- test target: Protein deacetylase HDAC6 (Homo sapiens, UniProt Q9UBN7)
- Sequence (Q9UBN7 whole entry): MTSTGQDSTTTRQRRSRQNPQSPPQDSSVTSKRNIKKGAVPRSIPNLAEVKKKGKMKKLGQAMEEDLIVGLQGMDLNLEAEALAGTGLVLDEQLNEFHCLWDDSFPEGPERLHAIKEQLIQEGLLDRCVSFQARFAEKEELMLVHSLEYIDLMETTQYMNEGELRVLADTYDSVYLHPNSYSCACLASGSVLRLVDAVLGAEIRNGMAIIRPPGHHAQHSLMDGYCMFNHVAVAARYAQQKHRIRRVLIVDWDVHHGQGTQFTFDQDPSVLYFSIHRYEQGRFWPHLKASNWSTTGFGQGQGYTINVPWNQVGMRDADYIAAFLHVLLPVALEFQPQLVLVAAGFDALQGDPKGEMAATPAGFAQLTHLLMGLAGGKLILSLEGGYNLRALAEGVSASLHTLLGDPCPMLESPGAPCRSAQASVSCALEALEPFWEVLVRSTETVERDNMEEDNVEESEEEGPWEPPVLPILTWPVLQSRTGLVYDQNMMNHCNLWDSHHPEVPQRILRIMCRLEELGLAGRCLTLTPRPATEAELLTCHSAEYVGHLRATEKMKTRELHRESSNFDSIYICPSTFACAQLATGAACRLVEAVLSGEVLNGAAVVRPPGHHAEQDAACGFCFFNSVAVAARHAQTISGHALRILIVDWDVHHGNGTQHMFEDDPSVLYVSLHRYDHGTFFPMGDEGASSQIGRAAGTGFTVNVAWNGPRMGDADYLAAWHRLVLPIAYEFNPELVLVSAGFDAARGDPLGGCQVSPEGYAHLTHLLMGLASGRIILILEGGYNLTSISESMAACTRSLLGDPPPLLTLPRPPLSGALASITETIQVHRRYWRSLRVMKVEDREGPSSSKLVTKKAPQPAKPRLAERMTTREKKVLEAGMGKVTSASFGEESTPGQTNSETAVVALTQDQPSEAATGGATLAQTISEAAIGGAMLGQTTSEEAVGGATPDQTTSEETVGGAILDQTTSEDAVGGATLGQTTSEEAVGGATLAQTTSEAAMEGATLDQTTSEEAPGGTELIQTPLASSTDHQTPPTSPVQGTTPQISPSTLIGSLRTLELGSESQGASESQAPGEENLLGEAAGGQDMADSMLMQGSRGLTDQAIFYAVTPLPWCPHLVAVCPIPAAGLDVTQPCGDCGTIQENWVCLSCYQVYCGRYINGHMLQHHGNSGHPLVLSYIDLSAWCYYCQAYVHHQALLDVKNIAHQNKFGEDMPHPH
pIC50: −log10 of the molar value.
This section presents compounds with their documented pIC50 values.
reported endpoint: pIC50

* Cn1c(Cc2ccc(C(=O)NO)cc2)nnc1-c1ccccc1 | 7.77
* COc1ccc(CC(=O)N[C@@H](Cc2cscn2)C(=O)Nc2ccc(C(=O)NO)cc2)cc1OC | 8.30
* O=C(NO)c1ccc(Cn2nnc(-c3ncccn3)n2)cc1 | 8.15
* O=C(NO)c1ccc(Sc2nnc(-c3ccccc3)s2)cc1 | 8.22
* Cc1cc(-c2nnc(Sc3ccc(C(=O)NO)c(F)c3)n2C)nn1C | 5.65
* Cc1nnc(-c2ccc(C(=O)NO)cc2)[nH]1 | 6.45
